Taken from ChEMBL document CHEMBL1932991.

# testTarget: MAP kinase-activated protein kinase 2 (Homo sapiens, UniProt P49137)
# Sequence (P49137 whole entry): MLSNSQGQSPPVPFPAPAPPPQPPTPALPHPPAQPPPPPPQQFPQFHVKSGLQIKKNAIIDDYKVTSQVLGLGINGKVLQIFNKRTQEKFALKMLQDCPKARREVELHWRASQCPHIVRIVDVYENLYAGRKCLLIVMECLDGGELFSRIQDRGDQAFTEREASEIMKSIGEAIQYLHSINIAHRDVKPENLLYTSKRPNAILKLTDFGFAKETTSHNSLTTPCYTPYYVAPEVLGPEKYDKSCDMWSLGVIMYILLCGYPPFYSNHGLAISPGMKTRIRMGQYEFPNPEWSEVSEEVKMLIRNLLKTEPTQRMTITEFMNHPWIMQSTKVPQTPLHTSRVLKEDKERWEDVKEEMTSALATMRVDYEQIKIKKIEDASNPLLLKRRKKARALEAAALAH
# assayOverview: Inhibition of MK2 using Fluo-betaA-11A NeoMPS as substrate pre-incubated for 30 mins before substrate addition measured after 2 hrs by IMAP assay
Task for the reader: assign each of the following compounds its reported pEC50.
// pEC50: -log10(molar conc.)

Query string: Output pEC50 of O=C(Nc1cc(-c2cc3c([nH]2)C2(CCCNC2)CNC3=O)ccn1)c1cc(F)cc(F)c1 (racemic)
Result string: 8.60

Query string: Output pEC50 of O=C(Nc1cc(-c2cc3c([nH]2)C2(CCCNC2)CNC3=O)ccn1)c1ccc2ccccc2c1 (single isomer, unassigned)
Result string: 6.89

Query string: Output pEC50 of Cc1ccc(C(=O)Nc2nccc(-c3cc4c([nH]3)C3(CCNCC3)CNC4=O)n2)cc1C
Result string: 8.51

Query string: Output pEC50 of O=C(Nc1cc(-c2cc3c([nH]2)C2(CCNC2)CNC3=O)ccn1)c1cccc(OC(F)(F)F)c1 (racemic)
Result string: 8.80

Query string: Output pEC50 of O=C(Nc1cc(-c2cc3c([nH]2)C2(CCCNC2)CNC3=O)ccn1)c1ccccn1 (racemic)
Result string: 8.38

Query string: Output pEC50 of O=C(Nc1cc(-c2cc3c([nH]2)C2(CCCNC2)CNC3=O)ccn1)c1ccc2ccccc2c1 (racemic)
Result string: 8.12

Query string: Output pEC50 of O=C(Nc1cc(-c2cc3c([nH]2)C2(CCNCC2)CNC3=O)ccn1)c1ccc(C(F)(F)F)cc1
Result string: 8.80

Query string: Output pEC50 of O=C(Nc1nccc(-c2cc3c([nH]2)C2(CCNCC2)CNC3=O)n1)c1ccc(F)cc1
Result string: 7.82

Query string: Output pEC50 of Cc1ccc(C(=O)Nc2cc(-c3cc4c([nH]3)C3(CCCNC3)CNC4=O)ccn2)cc1C (single isomer, unassigned; stereoisomer 2)
Result string: 7.49

Query string: Output pEC50 of CN1CCC2(CC1)CNC(=O)c1cc(-c3ccnc(NC(=O)c4ccc5ccccc5c4)c3)[nH]c12
Result string: 8.59

Query string: Output pEC50 of O=C(Nc1cc(-c2cc3c([nH]2)C2(CCNCC2)CNC3=O)ccn1)c1ccc(F)cc1
Result string: 8.80

Query string: Output pEC50 of O=C(Nc1cc(-c2cc3c([nH]2)C2(CCNC2)CNC3=O)ccn1)c1cccc(F)c1 (racemic)
Result string: 8.72

Query string: Output pEC50 of O=C(Nc1nccc(-c2cc3c([nH]2)C2(CCNCC2)CNC3=O)n1)c1ccc2ccccc2c1
Result string: 8.29

Query string: Output pEC50 of O=C(Nc1cc(-c2cc3c([nH]2)C2(CCCNC2)CNC3=O)ccn1)c1cccc(C(F)(F)F)c1 (racemic)
Result string: 8.48

Query string: Output pEC50 of O=C(Nc1cc(-c2cc3c([nH]2)C2(CCCNC2)CNC3=O)ccn1)c1ccc(C(F)(F)F)cc1 (racemic)
Result string: 8.04

Query string: Output pEC50 of O=C1NCC2(CCNCC2)c2[nH]c(-c3ccnc(NC(=O)c4cccc5ccccc45)n3)cc21
Result string: 7.85

###

Task for the reader: assign each of the following molecules its reported log10(EC50).
# testTarget: MAP kinase-activated protein kinase 2 (Homo sapiens)
# assayOverview: Inhibition of MK2-mediated HSP27 phosphorylation in LPS-stimulated human THP1 cells pre-incubated for 60 mins prior to LPS-induction measured after 60 mins by multi-spot assay
# Type: cell-based, THP-1
Would you kindly interpret these values as log10 of EC50 expressed in nM?

Query string: Output log10(EC50) of Cc1ccc(C(=O)Nc2cc(-c3cc4c([nH]3)C3(CCCNC3)CNC4=O)ccn2)cc1C (single isomer, unassigned; stereoisomer 2)
Result string: 3.72

Query string: Output log10(EC50) of O=C(Nc1cc(-c2cc3c([nH]2)C2(CCNCC2)CNC3=O)ccn1)c1ccccn1
Result string: 2.74

Query string: Output log10(EC50) of O=C(Nc1cc(-c2cc3c([nH]2)C2(CCCNC2)CNC3=O)ccn1)c1cccc(C(F)(F)F)c1 (racemic)
Result string: 2.77

Query string: Output log10(EC50) of Cc1ccc(C(=O)Nc2cc(-c3cc4c([nH]3)C3(CCNC3)CNC4=O)ccn2)cc1C (racemic)
Result string: 2.38

Query string: Output log10(EC50) of O=C(Nc1cc(-c2cc3c([nH]2)C2(CCCNC2)CNC3=O)ccn1)c1ccc(F)cc1 (stereo in doubt; 6dS1)
Result string: 2.51

Query string: Output log10(EC50) of CN1CCC2(CC1)CNC(=O)c1cc(-c3ccnc(NC(=O)c4cccc(F)c4)c3)[nH]c12
Result string: 2.81

Query string: Output log10(EC50) of Cc1ccc(C(=O)Nc2cc(-c3cc4c([nH]3)C3(CCN(C)CC3)CNC4=O)ccn2)cc1C
Result string: 2.96

Query string: Output log10(EC50) of O=C(Nc1cc(-c2cc3c([nH]2)C2(CCCNC2)CNC3=O)ccn1)c1ccccn1 (racemic)
Result string: 2.82

Query string: Output log10(EC50) of O=C(Nc1cc(-c2cc3c([nH]2)C2(CCCNC2)CNC3=O)ccn1)c1ccc(F)cc1 (racemic)
Result string: 2.94

Query string: Output log10(EC50) of O=C(Nc1cc(-c2cc3c([nH]2)C2(CCNC2)CNC3=O)ccn1)c1cccc(OC(F)(F)F)c1 (racemic)
Result string: 2.60

Query string: Output log10(EC50) of O=C(Nc1cc(-c2cc3c([nH]2)C2(CCCNC2)CNC3=O)ccn1)c1ccc(F)cc1 (single isomer, unassigned; isomer 2)
Result string: 3.87

Query string: Output log10(EC50) of O=C(Nc1cc(-c2cc3c([nH]2)C2(CCCNC2)CNC3=O)ccn1)c1cc(F)cc(F)c1 (racemic)
Result string: 2.77

Query string: Output log10(EC50) of O=C(Nc1cc(-c2cc3c([nH]2)C2(CCNC2)CNC3=O)ccn1)c1ccc(F)cc1 (racemic)
Result string: 2.92

Query string: Output log10(EC50) of O=C(Nc1cc(-c2cc3c([nH]2)C2(CCNCC2)CNC3=O)ccn1)c1cccc(F)c1
Result string: 2.83

Query string: Output log10(EC50) of O=C(Nc1cc(-c2cc3c([nH]2)C2(CCNC2)CNC3=O)ccn1)c1ccc2ccccc2c1 (racemic)
Result string: 2.59

Query string: Output log10(EC50) of O=C(Nc1cc(-c2cc3c([nH]2)C2(CCNCC2)CNC3=O)ccn1)c1ccc(C(F)(F)F)cc1
Result string: 3.11

Query string: Output log10(EC50) of O=C(Nc1cc(-c2cc3c([nH]2)C2(CCNCC2)CNC3=O)ccn1)c1cccc(OC(F)(F)F)c1
Result string: 2.11

Query string: Output log10(EC50) of O=C(Nc1cc(-c2cc3c([nH]2)C2(CCNC2)CNC3=O)ccn1)c1ccccn1 (racemic)
Result string: 2.82

Query string: Output log10(EC50) of O=C(Nc1cc(-c2cc3c([nH]2)C2(CCNCC2)CNC3=O)ccn1)c1ccc2ccccc2c1
Result string: 2.45

Query string: Output log10(EC50) of O=C(Nc1cc(-c2cc3c([nH]2)C2(CCCNC2)CNC3=O)ccn1)c1ccc2ccccc2c1 (racemic)
Result string: 3.04

Query string: Output log10(EC50) of Cc1ccc(C(=O)Nc2cc(-c3cc4c([nH]3)C3(CCCNC3)CNC4=O)ccn2)cc1C (racemic)
Result string: 2.84

Query string: Output log10(EC50) of O=C(Nc1cc(-c2cc3c([nH]2)C2(CCNCC2)CNC3=O)ccn1)c1ccc(F)cc1
Result string: 3.57

Query string: Output log10(EC50) of CN1CCC2(CC1)CNC(=O)c1cc(-c3ccnc(NC(=O)c4ccc5ccccc5c4)c3)[nH]c12
Result string: 2.86
